Origin of measurements: PubChem BioAssay AID2060603

tested on: 422866-222-R5-J1-PDC spheroid viability; experiment: Anticancer human tumor 422866-222-R5-J1-PDC patient-derived pancreatic adenocarcinoma cell line growth inhibition [CLK]; details: second compound 1 µM; first compound 3.16 µM; hits give low values; spheroids with HUVEC and MSC
VALUE_TYPE: viability, T/C

Below are worked cases with known answers.
COc1cccc2c1C(=O)c1c(O)c3c(c(O)c1C2=O)CC(O)(C(=O)CO)CC3OC1CC(N)C(O)C(C)O1 (configuration not stated) + CNC(=O)c1ccc(Nc2nc(OC3CCCC3)c3c(-c4ccc5nc(C)oc5c4)c[nH]c3n2)c(OC)c1 ... 31.2%
C=CC(=O)N1CCN(c2nc(=O)n(-c3c(C)ccnc3C(C)C)c3nc(-c4c(O)cccc4F)c(F)cc23)C(C)C1 (configuration not stated) + CNC(=O)c1ccc(Nc2nc(OC3CCCC3)c3c(-c4ccc5nc(C)oc5c4)c[nH]c3n2)c(OC)c1 ... 31.9%
CC(Nc1ccc2c(c1)OCCn1cc(N3C(=O)OCC3C(F)F)nc1-2)C(N)=O (configuration not stated) + CN1CCN(c2cc(C(=O)Nc3cc4cc(-c5cnn(C)c5)ccc4cn3)ccn2)CC1 ... 21.3%

Record request: viability, T/C value, item COc1cccc2c1C(=O)c1c(O)c3c(c(O)c1C2=O)CC(O)(C(=O)CO)CC3OC1CC(N)C(O)C(C)O1 (configuration not stated) + CN1CCN(c2cc(C(=O)Nc3cc4cc(-c5cnn(C)c5)ccc4cn3)ccn2)CC1 38%

Record request: viability, T/C value, item CC1COCCN1c1cc(C2(S(C)(=N)=O)CC2)nc(-c2ccnc3[nH]ccc23)n1 (configuration not stated) + CN1CCN(c2cc(C(=O)Nc3cc4cc(-c5cnn(C)c5)ccc4cn3)ccn2)CC1 23.8%

Record request: viability, T/C value, item C=C(F)C(=O)N1CCN(c2nc(OCC3CCCN3C)nc3c2CCN(c2cccc4cccc(Cl)c24)C3)CC1CC#N (configuration not stated) + CNC(=O)c1ccc(Nc2nc(OC3CCCC3)c3c(-c4ccc5nc(C)oc5c4)c[nH]c3n2)c(OC)c1 18.2%

Record request: viability, T/C value, item CC1(C)CCC(CN2CCN(c3ccc(C(=O)NS(=O)(=O)c4ccc(NCC5CCOCC5)c([N+](=O)[O-])c4)c(Oc4cnc5[nH]ccc5c4)c3)CC2)=C(c2ccc(Cl)cc2)C1 + CN1CCN(c2cc(C(=O)Nc3cc4cc(-c5cnn(C)c5)ccc4cn3)ccn2)CC1 25.1%

###

tested on: 422866-222-R5-J1-PDC spheroid viability; assay: Anticancer human tumor 422866-222-R5-J1-PDC cell line growth inhibition [CLK]; settings: second compound 0.0316 µM; first compound 0.316 µM; hits give low values; spheroids with HUVEC and MSC;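 note: spheroids exposed to agents for seven days before readout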
Measured viability, T/C values are reported for all entries that follow.
Return type: number; implicit unit %.

viability, T/C of COC1C=CCC(C)C(C)S(=O)(=O)NC(=O)c2ccc3c(c2)N(CC2CCC21)CC1(CCCc2cc(Cl)ccc21)CO3 (stereo unspecified) + CN1CCN(c2cc(C(=O)Nc3cc4cc(-c5cnn(C)c5)ccc4cn3)ccn2)CC1 on 422866-222-R5-J1-PDC spheroid viability? 113

viability, T/C of C#Cc1c(F)ccc2cc(O)cc(-c3ncc4c(N5CC6CCC(C5)N6)nc(OCC56CCCN5CC(F)C6)nc4c3F)c12 (stereo unspecified) + CNC(=O)c1ccc(Nc2nc(OC3CCCC3)c3c(-c4ccc5nc(C)oc5c4)c[nH]c3n2)c(OC)c1 on 422866-222-R5-J1-PDC spheroid viability? 70.8

viability, T/C of Nc1ccn(C2OC(CO)C(O)C2(F)F)c(=O)n1 (stereo unspecified) + CNC(=O)c1ccc(Nc2nc(OC3CCCC3)c3c(-c4ccc5nc(C)oc5c4)c[nH]c3n2)c(OC)c1 on 422866-222-R5-J1-PDC spheroid viability? 53.7

viability, T/C of Nc1ccccc1NC(=O)c1ccc(CNC(=O)OCc2cccnc2)cc1 + CN1CCN(c2cc(C(=O)Nc3cc4cc(-c5cnn(C)c5)ccc4cn3)ccn2)CC1 on 422866-222-R5-J1-PDC spheroid viability? 121

viability, T/C of O=c1[nH]cc(F)c(=O)[nH]1 + CN1CCN(c2cc(C(=O)Nc3cc4cc(-c5cnn(C)c5)ccc4cn3)ccn2)CC1 on 422866-222-R5-J1-PDC spheroid viability? 114

viability, T/C of CCCS(=O)(=O)Nc1ccc(F)c(C(=O)c2c[nH]c3ncc(-c4ccc(Cl)cc4)cc23)c1F + CNC(=O)c1ccc(Nc2nc(OC3CCCC3)c3c(-c4ccc5nc(C)oc5c4)c[nH]c3n2)c(OC)c1 on 422866-222-R5-J1-PDC spheroid viability? 141
